Assay: Half-life period of compound was measured in rat plasma.
Type: ADME
Property: half-life (s)

Compound	half-life (s)
O=C1OC(OP(=O)(Cc2cccc3ccccc23)OC2OC(=O)c3ccccc32)c2ccccc21 (stereo not drawn)	30

1. Cc1ccc2c(c1-c1ccccc1)C(=O)OC2OP(=O)(Cc1cccc2ccccc12)OC1OC(=O)c2c1ccc(C)c2-c1ccccc1 (stereo not drawn)
2. COc1ccc2c(c1)C(OP(=O)(Cc1cccc3ccccc13)OC1OC(=O)c3ccc(OC)cc31)OC2=O (stereo not drawn)
Input line: 1 or 2 : whose half-life is greater? Please indicate the selected item by its label.
Output line: 1

====

Below, each entry is listed with its recorded Concentration.
Species on record: Rattus norvegicus
Assay: Intracellular concentration of 1-naphthalenemethylphosphonate (NMPA) in isolated rat hepatocytes was measured after 15 min of incubation.
Format: functional
Cond: Hepatocyte
Give just the number in µM; leave the unit off.

Consider the worked cases shown below.
Molecule	Concentration / µM
COc1cc2c(c(OC)c1OC)C(=O)OC2OP(=O)(Cc1cccc2ccccc12)OC1OC(=O)c2c1cc(OC)c(OC)c2OC (stereo not given)	246
O=C1OC(OP(=O)(Cc2cccc3ccccc23)OC2OC(=O)c3ccccc32)c2ccccc21 (stereo not given)	500

Input line: Quick one: Concentration of O=C1OC(OP(=O)(Cc2cccc3ccccc23)OC2OC(=O)c3c(Cl)ccc(Cl)c32)c2c(Cl)ccc(Cl)c21 (stereo not given) ?
Output line: 78

Input line: Quick one: Concentration of O=P(O)(O)Cc1cccc2ccccc12 ?
Output line: 0

Input line: Quick one: Concentration of COc1cc(OC)c2c(c1)C(OP(=O)(Cc1cccc3ccccc13)OC1OC(=O)c3c(OC)cc(OC)cc31)OC2=O (stereo not given) ?
Output line: 359

Input line: Quick one: Concentration of COc1cccc2c1C(=O)OC2OP(=O)(Cc1cccc2ccccc12)OC1OC(=O)c2c(OC)cccc21 (stereo not given) ?
Output line: 336

Input line: Quick one: Concentration of COc1cccc2c1C(OP(=O)(Cc1cccc3ccccc13)OC1OC(=O)c3cccc(OC)c31)OC2=O (stereo not given) ?
Output line: 0

Input line: Quick one: Concentration of COc1ccc2c(c1)C(OP(=O)(Cc1cccc3ccccc13)OC1OC(=O)c3ccc(OC)cc31)OC2=O (stereo not given) ?
Output line: 428

Input line: Quick one: Concentration of Cc1ccc2c(c1-c1ccccc1)C(=O)OC2OP(=O)(Cc1cccc2ccccc12)OC1OC(=O)c2c1ccc(C)c2-c1ccccc1 (stereo not given) ?
Output line: 20

Input line: Quick one: Concentration of CCOc1cccc2c1C(=O)OC2OP(=O)(Cc1cccc2ccccc12)OC1OC(=O)c2c(OCC)cccc21 (stereo not given) ?
Output line: 208
